System: NCI-H1703
Assay: Induction of ferroptosis in human NCI-H1703 cells assessed as cell viability incubated for 72 hrs in presence of ferrostatin-1 by CellTiter-Glo luminescent cell viability assay
Assay type: functional, cell-based
Details: NCI-H1703, 72 h
pEC50: −log10 of the molar value.
QUANTITY_NAME: pEC50

O=C([C@H]1Cc2c([nH]c3ccccc23)[C@H](c2ccccc2)N1C(=O)CCl)N1CCCC1 ... < 5.00
COC(=O)[C@H]1Cc2c([nH]c3ccccc23)[C@H](c2ccc(S(C)(=O)=O)cn2)N1C(=O)CCl ... < 5.00
COC(=O)[C@H]1Cc2c([nH]c3ccccc23)[C@H](Cc2ccccc2)N1C(=O)CCl ... < 5.00
COC(=O)[C@H]1Cc2c([nH]c3ccccc23)[C@H](c2ccc(F)cc2Cl)N1C(=O)CCl ... < 5.00

###

EC50 by entry:
System: HT-1080
Test: Induction of ferroptosis in GPX4-dependent human HT-1080 cells assessed as cell viability incubated for 24 hrs in presence of 40% human plasma by time-course cell viability assay
Assay type: functional, cell-based
Conditions: HT-1080, 24 h
QUANTITY_NAME: EC50 (nM)

COC(=O)[C@H]1Cc2c([nH]c3ccccc23)[C@H](c2ccc(S(C)(=O)=O)cc2)N1C(=O)CCl ... 520
COC(=O)c1ccc([C@H]2c3[nH]c4ccccc4c3C[C@H](C(=O)OC)N2C(=O)CCl)cc1 ... 880

###

Assay: Metabolic stability in human liver microsomes assessed as unbound intrinsic clearance
Assay type: ADME, Microsome
QUANTITY_NAME: CL free (mL/min/kg)

COC(=O)[C@H]1Cc2c([nH]c3ccccc23)[C@H](C2CCOCC2)N1C(=O)CCl ... 33
COC(=O)[C@H]1Cc2c([nH]c3ccccc23)[C@H](Cc2ccccc2)N1C(=O)CCl ... 477
COC(=O)[C@H]1Cc2c([nH]c3ccccc23)[C@H](c2ccccc2)N1C(C)=O ... 183

###

Experiment: Unbound fraction in mouse plasma
Assay type: ADME, cell-free
QUANTITY_NAME: fraction unbound

COC(=O)[C@H]1Cc2c([nH]c3ccccc23)[C@H](C2CCOCC2)N1C(=O)CCl ... 0.24

###

System: NCI-H1703
Assay: Induction of ferroptosis in human NCI-H1703 cells assessed as cell viability incubated for 72 hrs in presence of ferrostatin-1 by CellTiter-Glo luminescent cell viability assay
Format: functional, cell-based
Conditions: NCI-H1703, 72 h
pEC50: −log10 of the molar value.
QUANTITY_NAME: pEC50

COC(=O)[C@H]1Cc2c([nH]c3ccccc23)[C@H](c2ccc(F)cc2F)N1C(=O)CCl ... 5.40
Cc1noc([C@H]2Cc3c([nH]c4ccccc34)[C@H](c3ccc(S(C)(=O)=O)cc3)N2C(=O)CCl)n1 ... 5.63
COC(=O)[C@H]1Cc2c([nH]c3ccccc23)[C@H](c2ccc(C(F)(F)F)cc2)N1C(=O)CCl ... 5.49
COC(=O)[C@H]1Cc2c([nH]c3ccccc23)[C@H](c2ccc(OC(F)(F)F)cc2)N1C(=O)CCl ... 5.37

###

EC50 by entry:
System: HT-1080
Assay: Induction of ferroptosis in GPX4-dependent human HT-1080 cells assessed as cell viability incubated for […] in presence of 40% human plasma by time-course cell viability assay
Assay type: functional, cell-based
QUANTITY_NAME: EC50 (nM)

COC(=O)c1ccc([C@H]2c3[nH]c4ccccc4c3C[C@H](C(=O)OC)N2C(=O)CCl)cc1 ... 1420
COC(=O)[C@H]1Cc2c([nH]c3ccccc23)[C@H](c2ccc(S(C)(=O)=O)cc2)N1C(=O)CCl ... 1260

###

Tested on: NCI-H1703
Experiment: Induction of ferroptosis in human NCI-H1703 cells assessed as cell viability incubated for 72 hrs in presence of ferrostatin-1 by CellTiter-Glo luminescent cell viability assay
Format: functional, cell-based
Conditions: NCI-H1703, 72 h
QUANTITY_NAME: EC50

COC(=O)[C@H]1Cc2c([nH]c3ccccc23)C(c2ccc(F)cc2C(F)(F)F)N1C(=O)CCl (single isomer, unassigned) ... > 10 µM
COC(=O)[C@H]1Cc2c([nH]c3ccccc23)[C@H](c2ccccc2)N1C(=O)CCl ... > 10 µM
Cc1noc([C@H]2Cc3c([nH]c4ccccc34)[C@H](c3ccccc3)N2C(=O)CCl)n1 ... > 10 µM
